Taken from the supplement of paper PMC10567573.

assay: protein stability index of a GFP-peptide fusion (GPS, HEK-293T) (PSI 1-6); higher = more stable; conditions: treatment: DMSO; c terminus: a fixed tail appended;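 note: 24-mer peptide tiles fused after GFP, lentivirally expressed, FACS-sorted into six equal bins by GFP/DsRed ratio, decoded by Illumina sequencing, PSI is the read-weighted mean bin number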
Attribute: protein stability index
metricName: protein stability index

[
  {
    "residues": "SSDVSTAGTGASRSSHSSDSGGSD [ELF3]",
    "endpointValue": 5.44
  },
  {
    "residues": "ELERLIDKAMKKDGLVGMAIVGGM [FIS1]",
    "endpointValue": 2
  },
  {
    "residues": "GARQISYSIPEELEKGSFVGNISK [PCDHGA10]",
    "endpointValue": 4.13
  },
  {
    "residues": "GTEQAPYGMQTQNYPKGGLLDSMC [ETS2]",
    "endpointValue": 3.59
  },
  {
    "residues": "TGHGVSRGPSPVVLGSQDALPIAT [FCHO1]",
    "endpointValue": 4.17
  },
  {
    "residues": "ERLTKQEKRPLFLAPDFDRWLDES [HACD3]",
    "endpointValue": 3.87
  },
  {
    "residues": "IFYFVIQRKKWVDLAWMITFYVRF [FADS1]",
    "endpointValue": 2.6
  },
  {
    "residues": "PSVPCTPAPQVGTQIRTITEEIRD [KRT36]",
    "endpointValue": 5.07
  },
  {
    "residues": "RLAAIAQEKDQEMERLRELQRASI [FBF1]",
    "endpointValue": 4.34
  },
  {
    "residues": "TEVPFSITTDNLQCRERREHPNLV [TEKT4]",
    "endpointValue": 4.17
  },
  {
    "residues": "FGHHHQRAWIPSENIQDITVNIHR [ZMYND11]",
    "endpointValue": 2.78
  },
  {
    "residues": "YAIVRRPTVGIGGDRLQFNQLSQA [EFHC1]",
    "endpointValue": 2.06
  },
  {
    "residues": "ESWDEEDKRNYPSLELDKMAHGYG [CHGB]",
    "endpointValue": 4.87
  }
]
